Below is a list of entries, each paired with its recorded pKi value.
Target: Adenosine receptor A2b (Homo sapiens, UniProt P29275)
Sequence (P29275 whole entry): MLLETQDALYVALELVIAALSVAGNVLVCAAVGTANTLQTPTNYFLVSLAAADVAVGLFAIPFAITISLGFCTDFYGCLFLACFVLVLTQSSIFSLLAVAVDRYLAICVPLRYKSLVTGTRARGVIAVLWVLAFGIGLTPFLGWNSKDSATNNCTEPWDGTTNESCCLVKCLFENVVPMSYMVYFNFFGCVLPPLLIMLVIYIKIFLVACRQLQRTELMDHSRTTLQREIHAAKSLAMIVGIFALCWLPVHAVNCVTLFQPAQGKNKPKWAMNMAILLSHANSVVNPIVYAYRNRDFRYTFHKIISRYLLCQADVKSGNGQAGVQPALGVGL
Assay: Displacement of [3H]PSB-603 from human adenosine A2B receptor
pKi: −log10 of the molar value.

See these solved cases before continuing.
Briefly, pKi measured for `CCCn1c(=O)c2c(nc3n2CCCN3CC(=O)N2CCN(Cc3ccc(OC)cc3)CC2)n(CCC)c1=O` : < 6.00

Briefly, pKi measured for `C#CCn1c(=O)c2c(nc3n2CCCN3CCc2ccc(O)cc2)n(C)c1=O` : < 5.00

Briefly, pKi measured for `C#CCn1c(=O)c2c(nc3n2CCCN3Cc2cccs2)n(C)c1=O` : 5.76

Briefly, pKi measured for `C#CCn1c(=O)c2c(nc3n2CCCN3c2ccc(C(C)C)cc2)n(C)c1=O` : < 6.00

Next:
Briefly, pKi measured for `C#CCn1c(=O)c2c(nc3n2CCCN3CC2CCCCC2)n(C)c1=O` : < 6.00

Briefly, pKi measured for `C#CCn1c(=O)c2c(nc3n2CCCN3C2CCCCC2)n(C)c1=O` : 4.77

Briefly, pKi measured for `Cn1c(=O)c2c(nc3n2CCCN3c2ccc(Cl)cc2)n(C)c1=O` : < 6.00

* * *

Target: Adenosine receptor A1 (Rattus norvegicus, UniProt P25099)
Sequence (P25099 whole entry): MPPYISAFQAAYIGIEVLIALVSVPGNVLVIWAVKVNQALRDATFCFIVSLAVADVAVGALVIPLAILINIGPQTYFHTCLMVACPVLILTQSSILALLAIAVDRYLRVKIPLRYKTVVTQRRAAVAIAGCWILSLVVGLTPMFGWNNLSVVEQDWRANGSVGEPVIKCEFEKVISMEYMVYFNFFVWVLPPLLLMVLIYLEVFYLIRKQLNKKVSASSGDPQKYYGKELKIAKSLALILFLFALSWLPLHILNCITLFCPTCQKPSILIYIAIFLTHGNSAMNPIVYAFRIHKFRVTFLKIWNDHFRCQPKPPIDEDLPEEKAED
Assay: Displacement of [3H]CCPA from adenosine A1 receptor in rat brain cortex
Format: tissue-based
Below is a list of entries, each paired with its recorded pKi value.
Notebook: values listed as pKi are -log10 of the concentration (mol/L).

See these solved cases before continuing.
Briefly, pKi measured for `Cn1c(=O)c2c(nc3n2CCCN3c2cccc(Cl)c2)n(C)c1=O` : 5.35

Briefly, pKi measured for `C#CCn1c(=O)c2c(nc3n2CCCN3c2cccc(OC)c2)n(C)c1=O` : 6.33

Briefly, pKi measured for `C#CCn1c(=O)c2c(nc3n2CCCN3Cc2cccnc2)n(C)c1=O` : 5.74

Next:
Briefly, pKi measured for `C#CCn1c(=O)c2c(nc3n2CCCN3CC2CCCCC2)n(C)c1=O` : 6.66

Briefly, pKi measured for `C#CCn1c(=O)c2c(nc3n2CCCN3Cc2cccs2)n(C)c1=O` : 6.94

* * *

Molecular target: Adenosine receptor A2b (Homo sapiens, UniProt P29275)
Experiment: Displacement of [3H]PSB-603 from human adenosine A2B receptor
QUANTITY NAME: Ki

See these solved cases before continuing.
Briefly, Ki measured for `CCCn1c(=O)c2c(nc3n2CCCN3CC(=O)N2CCN(Cc3ccccc3)CC2)n(CCC)c1=O` : > 1000 nM

Briefly, Ki measured for `CCn1c(=O)c2c(nc3n2CCCN3CCc2ccc(OC)c(OC)c2)n(CC)c1=O` : > 1000 nM

Briefly, Ki measured for `C#CCn1c(=O)c2c(nc3n2CCCN3Cc2ccccc2)n(C)c1=O` : 3520 nM

Briefly, Ki measured for `Cn1c(=O)c2c(nc3n2CCCN3CC(=O)N2CCN(Cc3ccc(C(F)(F)F)cc3)CC2)n(C)c1=O` : > 1000 nM

Briefly, Ki measured for `CCn1c(=O)c2c(nc3n2CCCN3c2ccc(F)cc2)n(CC)c1=O` : > 1000 nM

Briefly, Ki measured for `Cn1c(=O)c2c(nc3n2CCCN3c2cccc(Cl)c2)n(C)c1=O` : > 1000 nM

Next:
Briefly, Ki measured for `C#CCn1c(=O)c2c(nc3n2CCCN3CCc2ccccc2)n(C)c1=O` : > 1000 nM

Briefly, Ki measured for `C#CCn1c(=O)c2c(nc3n2CCCN3Cc2cccnc2)n(C)c1=O` : > 300 nM

Briefly, Ki measured for `CCn1c(=O)c2c(nc3n2CCCN3C2CCCCC2)n(CC)c1=O` : > 1000 nM

Briefly, Ki measured for `CCCn1c(=O)c2c(nc3n2CCCN3CC(=O)N2CCN(c3ccc(Cl)cc3)CC2)n(CCC)c1=O` : > 1000 nM

Briefly, Ki measured for `CCn1c(=O)c2c(nc3n2CCCN3c2cccc(OC)c2)n(CC)c1=O` : > 1000 nM

Briefly, Ki measured for `Cn1c(=O)c2c(nc3n2CCCN3CCc2cccc(Cl)c2)n(C)c1=O` : > 1000 nM

Briefly, Ki measured for `CCCn1c(=O)c2c(nc3n2CCCN3CC(=O)N2CCN(Cc3ccc(C(F)(F)F)cc3)CC2)n(CCC)c1=O` : > 1000 nM

* * *

Target: Adenosine receptor A1 (Rattus norvegicus)
Assay: Displacement of [3H]CCPA from adenosine A1 receptor in rat brain cortex relative to control
Format: tissue-based
Design: concentration or dose not given beside the values
Details: concentration not given here
Rule: inhibition of 20% or more gives Yes; anything lower gives No.

Please review the entries below; each comes with its answer.
Check if inhibition >= 20% (inclusive). Item: `Cn1c(=O)c2c(nc3n2CCCN3CC(=O)N2CCN(c3ccc(Cl)cc3)CC2)n(C)c1=O`
No

Check if inhibition >= 20% (inclusive). Item: `CCCn1c(=O)c2c(nc3n2CCCN3CCC(=O)N2CCN(c3ccccc3)CC2)n(CCC)c1=O`
No

Check if inhibition >= 20% (inclusive). Item: `Cn1c(=O)c2c(nc3n2CCCN3CC(=O)N2CCN(Cc3ccccc3)CC2)n(C)c1=O`
No

Check if inhibition >= 20% (inclusive). Item: `C#CCn1c(=O)c2c(nc3n2CCCN3C2CCN(Cc3ccccc3)CC2)n(C)c1=O`
Yes

Check if inhibition >= 20% (inclusive). Item: `CCCn1c(=O)c2c(nc3n2CCCN3CC(=O)N2CCN(c3ccc(Cl)cc3)CC2)n(CCC)c1=O`
No

Next:
Check if inhibition >= 20% (inclusive). Item: `CCCn1c(=O)c2c(nc3n2CCCN3CC(=O)N2CCN(c3ccccc3)CC2)n(CCC)c1=O`
No

Check if inhibition >= 20% (inclusive). Item: `CCn1c(=O)c2c(nc3n2CCCN3c2ccc(O)cc2)n(CC)c1=O`
Yes

Check if inhibition >= 20% (inclusive). Item: `CCn1c(=O)c2c(nc3n2CCCN3CCc2cccc(OC)c2)n(CC)c1=O`
Yes

Check if inhibition >= 20% (inclusive). Item: `Cn1c(=O)c2c(nc3n2CCCN3c2ccc(Cl)c(Cl)c2)n(C)c1=O`
Yes

Check if inhibition >= 20% (inclusive). Item: `COc1ccc(CN2CCN(C(=O)CN3CCCn4c3nc3c4c(=O)n(C)c(=O)n3C)CC2)cc1`
No

Check if inhibition >= 20% (inclusive). Item: `Cn1c(=O)c2c(nc3n2CCCN3CC(=O)N2CCN(c3ccccc3)CC2)n(C)c1=O`
No

Check if inhibition >= 20% (inclusive). Item: `Cn1c(=O)c2c(nc3n2CCCN3c2cc(Cl)cc(Cl)c2)n(C)c1=O`
Yes

Check if inhibition >= 20% (inclusive). Item: `CCCn1c(=O)c2c(nc3n2CCCN3CC(=O)N2CCN(Cc3ccc(OC)cc3)CC2)n(CCC)c1=O`
No

Check if inhibition >= 20% (inclusive). Item: `Cn1c(=O)c2c(nc3n2CCCN3c2ccc(Cl)cc2)n(C)c1=O`
Yes

* * *

Biological target: Adenosine receptor A1 (Homo sapiens)
Test: Displacement of [3H]CCPA from human adenosine A1 receptor expressed in CHO cells relative to control
Assay type: cell-based
Conditions: concentration not given here
QUANTITY NAME: inhibition (%)
Give a bare numeral; the unit % is implied.

See these solved cases before continuing.
Briefly, inhibition measured for `Cn1c(=O)c2c(nc3n2CCCN3c2ccc(Cl)cc2)n(C)c1=O` : 30

Briefly, inhibition measured for `C#CCn1c(=O)c2c(nc3n2CCCN3c2cccc(Br)c2)n(C)c1=O` : 21

Briefly, inhibition measured for `Cn1c(=O)c2c(nc3n2CCCN3Cc2cccc(Cl)c2)n(C)c1=O` : 21

Could you now look at the following compound, please?
Briefly, inhibition measured for `Cn1c(=O)c2c(nc3n2CCCN3Cc2ccc(Cl)cc2)n(C)c1=O` : 29

* * *

Target: Adenosine receptor A2a (Homo sapiens)
Sequence (P29274 whole entry): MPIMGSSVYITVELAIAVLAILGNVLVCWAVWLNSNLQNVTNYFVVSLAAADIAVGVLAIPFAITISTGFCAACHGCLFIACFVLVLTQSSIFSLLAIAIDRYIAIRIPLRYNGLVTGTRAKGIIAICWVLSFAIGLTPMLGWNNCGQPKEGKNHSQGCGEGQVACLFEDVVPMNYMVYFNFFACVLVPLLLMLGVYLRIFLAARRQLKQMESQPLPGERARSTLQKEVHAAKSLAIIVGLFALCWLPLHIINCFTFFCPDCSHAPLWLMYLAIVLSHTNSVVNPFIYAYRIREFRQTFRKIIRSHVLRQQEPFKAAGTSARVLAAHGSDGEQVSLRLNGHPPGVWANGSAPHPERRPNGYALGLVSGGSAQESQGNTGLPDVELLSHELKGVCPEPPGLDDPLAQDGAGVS
Assay: Binding affinity to human adenosine A2A receptor
Below is a list of entries, each paired with its recorded pKi value.
Notebook: values listed as pKi are -log10 of the concentration (mol/L).

Result for `C#CCn1c(=O)c2c(nc(/C=C/c3cccc(OC)c3)n2C)n(CCCO)c1=O` , tested on Adenosine receptor A2a (Homo sapiens), pKi: 8.27

Next:
Result for `Cn1c(=O)c2c(nc3n2CCCN3c2ccc(F)cc2)n(C)c1=O` , tested on Adenosine receptor A2a (Homo sapiens), pKi: 5.73
